Measured values drawn from paper PMC9352680 for this set.

- TGT: T1, PUF4 RNA-binding domain (Saccharomyces cerevisiae, UniProt P25339 537-888)
- T1 sequence: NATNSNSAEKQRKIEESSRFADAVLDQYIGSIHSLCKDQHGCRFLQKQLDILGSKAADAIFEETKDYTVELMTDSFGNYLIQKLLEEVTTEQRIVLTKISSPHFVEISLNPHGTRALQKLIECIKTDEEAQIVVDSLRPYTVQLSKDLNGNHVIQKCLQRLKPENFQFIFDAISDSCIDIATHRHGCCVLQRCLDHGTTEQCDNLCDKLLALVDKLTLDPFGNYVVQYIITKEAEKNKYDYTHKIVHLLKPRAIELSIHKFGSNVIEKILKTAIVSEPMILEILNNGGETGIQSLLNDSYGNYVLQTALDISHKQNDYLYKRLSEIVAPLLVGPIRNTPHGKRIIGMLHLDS
- PROTOCOL NOTES: Mg; RNA-MaP; 20 mM Na-HEPES pH 7.4, 30 mM KOAc, 0.75 mM MgCl2, 0.1% Tween-20, 5% glycerol, 0.1 mg/mL BSA, 2 mM DTT; 25 C; 0.0125-409.6 nM protein
- CONDITION INFO: tags: N-His6-TEV cleaved; C-SNAP kept, Cy3B-labelled; label: tethered on chip by stalled RNA polymerase
Kd under 600 nM gets Met, anything at or over 600 nM gets Not met.

Please review the entries below; each comes with its answer.
# BINDER, CLASS NAME
records = [
    ("Ic_S2_P5E.1_K5.1_C5.1_H5.1_A5.1_[T5C]_[T6C]_F5.1_[T9C]_[A10T]_T5.1 (ssRNA) RNA: UUUGAUUAAUAUGAUAUCGUUCUUUCUUGUACCAUCUUUCUUUCUCGAUAUCAUAUUAAUCUUU", "Met"),
    ("ACAAACCAUAUAUUAUUAAAACAAAC (ssRNA) [Id_ii_S3_P5E.3_K5.2_C5.2_[T-1A]_H5.2_A5.1_F5.1_T5.2_[T11A]]", "Not met"),
    ("UCUCUUCUUGUAUAUUUCAUAUCUCUU (ssRNA) [Ie_S1_P3E.2_K3.1_C3.2_H3.1_A3.1_F3.1_[+7TTC]_T3.2]", "Met"),
    ("ACAAACAAUAUAUUAUUAAAACAAAC (ssRNA) [Id_ii_S3_P5E.3_K5.2_C5.2_[C-2A]_[T-1A]_H5.2_A5.1_F5.1_T5.2_[T11A]]", "Met"),
    ("Ic_S2_P5E.1_K5.1_C5.1_H5.1_A5.1_[T5A]_F5.1_[T8C]_[T9G]_[A10C]_T5.1 (ssRNA) RNA: UUUGAUUAAUAUGAUAUCGUUCUUUCUUGUAAUACGCUUCUUUCUCGAUAUCAUAUUAAUCUUU", "Not met"),
]

Now consider a different binder.
Query: hey, is Kd for UCUCUUUGUAUGCAUUCUCUU (ssRNA) [Ic_S1_P4E.1_K4.1_C4.1_H4.1_A4.1_[A6G]_[T7C]_F4.1_[T8A]_[A9T]_T4.1] lower than 600 nM or not?
Response: Met
